Can you tell me IC50 for the items I'm about to list?
- System: NCI-H23
- ASSAY_PROCEDURE: Cytotoxicity against human NCI-H23 cells assessed as cell viability after 72 hrs by sulforhodamine B assay
- Format: functional, cell-based
- RECORDED_CONDITIONS: NCI-H23, 72 h
Give the quantity in µM, number only.

Just so you know, measured IC50 for OC[C@H]1O[C@@H](n2cnc3c(-c4ccccc4)ncnc32)[C@H](O)[C@@H]1O came out at 1.2

Input OC[C@H]1O[C@@H](n2cnc3c(-c4cccs4)ncnc32)[C@H](O)[C@@H]1O . Output IC50: 0.6

The compound OC[C@H]1O[C@@H](n2cnc3c(C4CC4)ncnc32)[C@H](O)[C@@H]1O showed IC50 equal to 1

###

- Test system: Escherichia coli
- ASSAY_PROCEDURE: Activity of Escherichia coli PNP assessed per mg of protein at 100 uM by UV spectrometric analysis
Give Activity for every item shown.
Report only the number, with the unit nmol/h understood.

Lab note: measured Activity of OC[C@H]1O[C@@H](n2cnc3c(C4CCCC4)ncnc32)[C@H](O)[C@@H]1O was 42000

Reported Activity of Cc1ncnc2c1ncn2[C@H]1C[C@H](O)[C@@H](CO)O1 : 461000

Activity reported for this compound OC[C@H]1O[C@@H](n2cnc3c(C4CCC4)ncnc32)[C@H](O)[C@@H]1O : 63000

In plain terms, CCc1ncnc2c1ncn2[C@@H]1O[C@H](CO)[C@@H](O)[C@H]1O has a documented Activity of 69000

Nc1nc(F)nc2c1ncn2[C@@H]1O[C@H](CO)[C@@H](O)[C@@H]1O has a reported Activity of 1300

Given item OC[C@H]1O[C@@H](n2cnc3c(C4CC4)ncnc32)[C@H](O)[C@@H]1O , the value recorded as its Activity is 51000

Recorded Activity (compound CCCCc1ncnc2c1ncn2[C@@H]1O[C@H](CO)[C@@H](O)[C@H]1O ): 86000

Lab book: Activity of CCCc1ncnc2c1ncn2[C@@H]1O[C@H](CO)[C@@H](O)[C@H]1O noted as 72000

Just so you know, measured Activity for OC[C@H]1O[C@@H](n2cnc3c(-c4ccccc4)ncnc32)[C@H](O)[C@@H]1O came out at 21000

Per the records, this compound ( OC[C@H]1O[C@@H](n2cnc3c(-c4cccs4)ncnc32)[C@H](O)[C@@H]1O ) has Activity equal to 9900

Quick note, Activity for Cc1ncnc2c1ncn2[C@@H]1O[C@H](CO)[C@@H](O)[C@@H]1O landed at 14

Entry CC(C)Cc1ncnc2c1ncn2[C@@H]1O[C@H](CO)[C@@H](O)[C@H]1O ; Activity = 79000

Query Nc1ncnc2c1ncn2[C@@H]1O[C@H](CO)[C@@H](O)[C@H]1O yields Activity of 398000

GET /value?item= Cc1ncnc2c1ncn2[C@@H]1O[C@H](CO)[C@@H](O)[C@H]1O &field=Activity returns 84000
